Listing: Ki of selected molecules
Target: human OAT1 (Homo sapiens, UniProt Q4U2R8)
Sequence (Q4U2R8 whole entry): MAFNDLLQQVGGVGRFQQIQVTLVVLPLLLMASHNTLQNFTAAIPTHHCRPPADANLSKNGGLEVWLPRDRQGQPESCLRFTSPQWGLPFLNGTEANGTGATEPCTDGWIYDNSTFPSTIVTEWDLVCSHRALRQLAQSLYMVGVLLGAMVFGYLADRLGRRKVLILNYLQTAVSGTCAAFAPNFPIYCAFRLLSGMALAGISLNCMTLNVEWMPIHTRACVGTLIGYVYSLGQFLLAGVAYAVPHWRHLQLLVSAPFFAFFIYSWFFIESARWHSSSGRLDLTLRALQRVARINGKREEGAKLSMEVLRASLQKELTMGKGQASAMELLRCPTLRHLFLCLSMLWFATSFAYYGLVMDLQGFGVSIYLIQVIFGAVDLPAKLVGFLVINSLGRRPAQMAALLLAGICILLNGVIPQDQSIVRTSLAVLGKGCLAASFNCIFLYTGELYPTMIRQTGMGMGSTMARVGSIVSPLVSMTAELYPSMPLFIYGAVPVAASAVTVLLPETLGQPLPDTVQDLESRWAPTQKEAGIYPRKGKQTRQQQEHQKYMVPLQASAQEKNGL
Assay: Inhibition of OAT1-mediated 6-carboxyfluorescein
Conditions: read-out: Ki (OAT1)
Counter-ions that a name gives are not always drawn.

MOLECULE	LIMIT_OPERATOR	Ki / µM
CN(CCOc1ccc(CC2SC(=O)NC2=O)cc1)c1ccc(OS(=O)(=O)O)cn1 (stereo not shown) [5-OH-rosiglitazone sulfate]	=	33.7
CC(=O)C[C@@H](c1ccccc1)c1c(O)c2ccc(O)cc2oc1=O [(S)-7-hydroxy warfarin]	=	14.5
C[C@H](C(=O)O)c1ccc2cc(O)ccc2c1 [(S)-O-desmethyl naproxen]	=	4.7
CN(CCOc1ccc(CC2SC(=O)NC2=O)cc1)c1ccc(O[C@@H]2O[C@H](C(=O)O)[C@@H](O)[C@H](O)[C@H]2O)cn1 (stereo partly drawn) [5-Hydroxy Rosiglitazone β-D-Glucuronide]	>	200
CC(=O)c1ccc(CCOc2ccc(CC3SC(=O)NC3=O)cc2)nc1 (stereo not shown)	=	12.5
O=C1NC(=O)C(Cc2ccc(OCCNc3ccccn3)cc2)S1 (stereo not shown)	=	33.3
NS(=O)(=O)c1ccc(-n2nc(C(F)(F)F)cc2-c2ccc(C(=O)O)cc2)cc1	=	262
C[C@]12CC[C@H](OS(=O)(=O)O)CC1=CC[C@@H]1[C@@H]2CC[C@]2(C)C(c3cccnc3)=CC[C@@H]12 [Abiraterone sulfate]	=	38.2
CN1C(C(=O)Nc2ncc(C(=O)O)s2)=C(O)c2ccccc2S1(=O)=O	=	19.6
Cc1ccc(C(=O)c2ccc(CC(=O)O[C@@H]3O[C@H](C(=O)O)[C@@H](O)[C@H](O)[C@H]3O)n2C)cc1 [Tolmetin β-D-glucuronide]	=	7.17
